All figures here come from PubChem BioAssay.

Reported composite z-score values follow for various compounds
target: Torsin-1A (Homo sapiens); assay: small-molecule binders of mutant TOR1A in lysate, primary screen, cell lysate, small-molecule microarray, COS7 lysate, 635/667 nm fluorescence (AID 1150); conditions: COS7 hTOR1A mutant lysate, 635 nm fluorescence, higher = more signal;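 note: score pools 667 nm emission and signal to noise measuring lysate protein binding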
readout.type: composite z-score

INSERT INTO assay_data (smiles_representation, system_tested, readout_type, val) VALUES
  ('COc1ccc([Si](C)(C)[C@H]2[C@H](CCO)O[C@@]3(C(=O)N(Cc4ccc(N(C=O)c5ccccc5)cc4)c4ccccc43)[C@@H]2C)cc1', 'Torsin-1A (Homo sapiens)', 'composite z-score', -0.074),
  ('C[N+](C)(C)CCCCCCNC(=O)[C@@H]1C[C@@H]2C(=O)N[C@@H](Cc3ccccc3)C(=O)N2[C@@H]1c1cccc(OCCO)c1', 'Torsin-1A (Homo sapiens)', 'composite z-score', 1.51),
  ('C=CCOC(=O)[C@H]1[C@@H]2C(=O)O[C@@H](c3ccccc3)[C@@H](c3ccccc3)N2[C@@H](c2ccc(OCCOC(=O)[C@@H]3C[C@@H]4C(=O)N[C@@H](CC(C)C)C(=O)N4[C@@H]3c3ccc(O)cc3)cc2)[C@]12C(=O)Nc1ccccc12', 'Torsin-1A (Homo sapiens)', 'composite z-score', 0.95),
  ('C=CCN1C(=O)[C@]2(O[C@H](CCn3cc([C@H](O)c4ccccc4)nn3)[C@@H]([Si](C)(C)c3ccc(OC)cc3)[C@@H]2C)c2ccccc21', 'Torsin-1A (Homo sapiens)', 'composite z-score', -0.73),
  ('COCCCNC(=O)[C@]1(CCC(=O)OC(C)(C)C)N=C(c2ccc(OCCCO)cc2)O[C@@H]1c1ccccc1CN=[N+]=[N-]', 'Torsin-1A (Homo sapiens)', 'composite z-score', 1.58),
  ('COC(=O)[C@@]1(Cc2ccc(F)cc2)[C@H]2c3cc(C(=O)N4CCCC4)n(Cc4ccc(S(C)(=O)=O)cc4)c3C[C@H]2CN1C(=O)c1ccccc1', 'Torsin-1A (Homo sapiens)', 'composite z-score', 0.861);

---

Reported composite z-score values follow for various compounds
test: small-molecule microarray binders of probe aDKK1, primary screen, biochemical, biotinylated probe, 635/667 nm fluorescence (AID 1099); conditions: higher = more signal;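 note: score merges 667nm spot fluorescence with signal to noise across triplicate slides; reference of the scale not given here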
readout.type: composite z-score

INSERT INTO assay_data (compound, readout_type, val) VALUES
  ('COc1ccc(-c2cc3c(c(-c4ccc(Oc5ccccc5)cc4)n2)[Si](C(C)C)(C(C)C)OC3)cn1', 'composite z-score', -0.242),
  ('O=C1O[C@H](c2ccccc2)[C@H](c2ccccc2)N2[C@H]1[C@@H](C(=O)N1CCCCCCC1)[C@]1(C(=O)Nc3ccc(C#CC4=CCCCC4)cc31)[C@H]2c1ccc(OCCO)cc1', 'composite z-score', 2.63),
  ('CC(C)N1C(=O)[C@@]2(Cc3ccccc31)c1ccccc1C(=O)N(Cc1ccccc1Cl)[C@H]2c1ccc(CO)cc1', 'composite z-score', -0.0724),
  ('CCCC#C[Si](O[C@H](CC)c1cn(Cc2cccc(Cl)c2)nn1)(C(C)C)C(C)C', 'composite z-score', -0.23),
  ('C=C(/C(=C/C[C@H](OC(C)=O)c1ccc(CO)o1)c1cc(C(=O)OC)ccc1OC)C(C)C', 'composite z-score', -0.0153),
  ('CC(C)=CCCC(C)=CC(O)C1C=CC2C(=O)N(C)C(=O)C2N1Nc1ccccc1 (stereo not given)', 'composite z-score', 0.473),
  ('CCCCCCc1nc(-c2ccc(OC)nc2)cc2c1[Si](C(C)C)(C(C)C)O[C@H]2c1ccccc1', 'composite z-score', -0.0653),
  ('COC(=O)[C@@]1(Cc2ccc(OC)cc2)[C@H]2c3cc(C(=O)N(C)C)n(CCc4ccccn4)c3C[C@H]2CN1C(=O)c1ccccc1', 'composite z-score', 1.62),
  ('[N-]=[N+]=Nc1ccccc1[C@@H]1OC(c2ccc(OCCCO)cc2)=N[C@]1(Cc1ccccc1)C(=O)N1CCOCC1', 'composite z-score', 1.05),
  ('COC(=O)[C@@]1(Cc2ccc(F)cc2)[C@H]2c3cc(C(=O)N4CCCC4)n(CCCNc4ncc(C(F)(F)F)cc4Cl)c3C[C@H]2CN1C(=O)c1ccccc1', 'composite z-score', 1.43),
  ('CNS(=O)(=O)c1ccc(C)cc1', 'composite z-score', -0.0385),
  ('CCOC(=O)C[C@H]1[C@H](OC(=O)c2ccc(C(=O)c3ccccc3)cc2)[C@@H](NC(=O)c2ccccc2)c2cc(OCCCO)ccc2N1C(=O)c1ccc2ccccc2n1', 'composite z-score', -0.349),
  ('C=CCC(OC(C)=O)[C@@H]1[C@@H](N(Cc2cc3ccccc3o2)C(=O)c2cccc3ccccc23)c2cc(OCCCO)ccc2N1C(=O)c1ccc(-c2ccccc2)cc1 (stereo not given in full)', 'composite z-score', 0.365),
  ('CC(C)(C)OC(=O)CC[C@]1(C(=O)N2CCOCC2)N=C(c2ccc(OCCCO)cc2)O[C@H]1c1ccccc1N=[N+]=[N-]', 'composite z-score', 0.653),
  ('COc1ccc(CCNC(=O)[C@@]2(Sc3ccc(C)cc3)CC(=O)N(C3Cc4ccccc4C3)[C@@H]2c2ccc(CO)cc2I)cc1', 'composite z-score', 0.736);

---

assay: P. aeruginosa biofilm formation inhibitors, primary screen, strain PAO1, LB-PBS medium, absorbance 600 nm (AID 1176); note: test concentration not given here; settings: P. aeruginosa PAO1 growth/biofilm, A600, 12 h; higher = more signal
Reported z-score values follow for various molecules
readout.type: z-score

INSERT INTO results (molecule, readout_type, val) VALUES
  ('CC(=O)NCCCC[C@@H]1NC(=O)[C@H]2C[C@@H](C(=O)NCCCCCCNC(=O)CS)[C@@H](c3ccc(O)cc3)N2C1=O', 'z-score', 1.08),
  ('CO[C@H]1O[C@H](CO)[C@@H](OC(=O)Nc2ccccc2)[C@H](OC(=O)Nc2ccccc2)[C@@H]1OC(=O)Nc1ccccc1', 'z-score', -0.826),
  ('COCCOC(=O)N1C(=O)[C@@]2(c3cc(C#CCCO)ccc31)[C@H](C(=O)N1CCCCCCC1)[C@H]1C(=O)O[C@H](c3ccccc3)[C@H](c3ccccc3)N1[C@@H]2c1ccc(OCCO)cc1', 'z-score', 1.56),
  ('O=C1[C@@]23C=C(Br)[C@H](C[C@@H]2CCOC3)[C@@]12CO2', 'z-score', 0.261),
  ('COC(=O)C(CC#Cc1ccc2c(c1)[C@]1(C(=O)N2)[C@H](C(=O)Nc2nc3ccccc3s2)[C@H]2C(=O)O[C@H](c3ccccc3)[C@H](c3ccccc3)N2[C@@H]1c1ccccc1OCCO)C(=O)OC', 'z-score', 2.47),
  ('COC(=O)C(CC#Cc1ccc2c(c1)[C@]1(C(=O)N2)[C@H](C(=O)Nc2nc3ccccc3s2)[C@H]2C(=O)O[C@H](c3ccccc3)[C@H](c3ccccc3)N2[C@@H]1c1ccc(O)cc1)C(=O)OC', 'z-score', 1.23),
  ('[N-]=[N+]=NCc1ccccc1C[C@]1(C(=O)N2CCCCC2)N=C(c2ccc(OCCCO)cc2)O[C@H]1c1ccccc1N=[N+]=[N-]', 'z-score', 0.426),
  ('C=CCOC(=O)[C@@H]1[C@H]2C(=O)O[C@H](c3ccccc3)[C@H](c3ccccc3)N2[C@H](c2ccc(OCCOC(=O)[C@H]3C[C@H]4C(=O)N5CCC[C@H]5C(=O)N4[C@H]3c3ccc(O)cc3)cc2)[C@@]12C(=O)Nc1ccc(I)cc12', 'z-score', 3.16),
  ('CCCC[C@H]1OB(O)C[C@H]2C1=C(COC)Cn1c(=O)n(-c3ccccc3)c(=O)n12', 'z-score', 0.0937),
  ('Cc1ccc(S[C@]2(C(=O)NCCCN(C)C)CC(=O)N(Cc3cc(C(F)(F)F)cc(C(F)(F)F)c3)[C@@H]2c2ccc(CO)cc2I)cc1', 'z-score', 0.323),
  ('Cc1ccc(S[C@]2(C(=O)NC3CC3)CC(=O)N(Cc3ccccc3)[C@@H]2c2ccc(CO)cc2I)cc1', 'z-score', 0.751),
  ('COc1ccccc1CN1C(=O)c2ccccc2[C@@H](C(=O)NC2CC2)[C@@H]1c1ccc(CO)cc1', 'z-score', -0.342),
  ('CC(C)[Si](C#Cc1ccc(Oc2ccccc2)cc1)(O[Si](C#Cc1ccc(Oc2ccccc2)cc1)(C(C)C)C(C)C)C(C)C', 'z-score', -0.133),
  ('COc1ccc([Si](C)(C)[C@H]2[C@H](CCO)O[C@@]3(C(=O)N(Cc4ccc(N(C=O)c5ccccc5)cc4)c4ccccc43)[C@@H]2C)cc1', 'z-score', 2.06),
  ('[N-]=[N+]=NCc1ccccc1[C@@H]1OC(c2ccc(OCCCO)cc2)=N[C@]1(Cc1ccccc1)C(=O)NCC(O)CO (some centres not stated)', 'z-score', 1.35),
  ('COc1ccc(C(=O)Nc2ccc(CN3C(=O)[C@]4(O[C@H](CCO)[C@@H]([Si](C)(C)c5ccc(OC)cc5)[C@@H]4C)c4ccccc43)cc2)cc1', 'z-score', 2.16),
  ('CN1C(=O)C2C=CC(C(O)C3CC=CCC3)N(N(c3ccccc3)c3ccccc3)C2C1=O (configuration not stated)', 'z-score', 0.599),
  ('COc1ccc(-c2cc3c(c(-c4ccc(Oc5ccccc5)cc4)n2)[Si](C(C)C)(C(C)C)OC3)cn1', 'z-score', -0.0391),
  ('COC(=O)[C@@]1(Cc2ccccc2)[C@H]2c3cc(C(=O)N(C)C)n(Cc4ccsc4Br)c3C[C@H]2CN1C(=O)c1ccccc1', 'z-score', 0.467),
  ('COc1cc2c(cc1O)C(c1cccs1)N(C)CC2 (configuration not stated)', 'z-score', 0.282),
  ('CCc1cccc(NC(=O)O[C@H]2[C@H](OC(=O)Nc3ccccc3-c3ccccc3)[C@@H](OC(=O)Nc3ccccc3-c3ccccc3)[C@@H](OC)O[C@@H]2CO)c1', 'z-score', 0.0279),
  ('COC(=O)[C@@]1(Cc2ccc(F)cc2)[C@H]2c3cc(C(=O)N4CCCC4)n(Cc4ccc(S(C)(=O)=O)cc4)c3C[C@H]2CN1C(=O)c1ccccc1', 'z-score', 1.09),
  ('CCC(CC)C(O)C1C=CC2C(=O)NC(=O)C2N1Nc1ccccn1 (configuration not stated)', 'z-score', 0.503),
  ('C[N+](C)(C)CCCCCCNC(=O)[C@@H]1C[C@@H]2C(=O)N[C@@H](Cc3ccccc3)C(=O)N2[C@@H]1c1cccc(OCCO)c1', 'z-score', -0.27),
  ('COC(=O)[C@@]1(Cc2ccc(OC)cc2)[C@H]2c3cc(C(=O)N4CCCC4)n(Cc4ccc(C)c(F)c4F)c3C[C@H]2CN1C(=O)c1ccccc1', 'z-score', -0.843),
  ('COc1ccc([Si](C)(C)[C@@H]2[C@@H](CCO)O[C@]3(C(=O)N(Cc4ccc(N(C=O)c5ccccc5)cc4)c4ccccc43)[C@H]2C)cc1', 'z-score', 1.46),
  ('COc1cc2c(cc1OC)CN(C(=O)[C@@H]1[C@H]3C(=O)O[C@H](c4ccccc4)[C@H](c4ccccc4)N3[C@H](c3ccc(O)cc3)[C@@]13C(=O)Nc1ccccc13)CC2', 'z-score', 0.614);
